For reference, pIC50 measured on ACAT (Oryctolagus cuniculus, UniProt G1SFD9):
Scale explanation: pIC50 corresponds to minus log10 of a concentration expressed in moles per litre.

| Compound | Result Number |
| --- | --- |
| Cc1ccc2c(c1NC(=O)NCC1(c3ccccc3)CCCC1)OC(C)(C)C2 [Ex. 3] | 6.47 |
| CCCCCCCCCCOc1ccc(C(=O)C(C)(C)C(=O)Nc2c(C)cc(C)c3c2OC(C)(C)C3)cc1 [Ex. 80] | 7.40 |

Asked: Report measured pIC50; entry is Cc1cc(C)c(NC(=O)C(C)(C)CCCCCOc2ccc(N(C)C)cc2)c2c1CC(C)(C)O2 [Ex. 67]
Given back: 6.72

Asked: Hello, please tell me recorded pIC50 for this one: Cc1cc(C)c(NC(=O)C(C)(C)CCCCCOCCOC(C)C)c2c1CC(C)(C)O2 [Ex. 55]
Given back: 6.77

Asked: Please report pIC50 for the following compound: Cc1cc(C)c(NC(=O)C(C)(C)CCCCCOc2ccc(Cl)cc2Cl)c2c1CC(C)(C)O2 [Ex. 63]
Given back: 6.66

Asked: For CCCCCCCCCCC1(C(=O)Nc2cccc3nc(-c4ccccc4)oc23)CCCC1 [Ex. 18] , write its pIC50.
Given back: 6.30
